Cited source for all entries: ChEMBL document CHEMBL3797101

# System Tested: Cannabinoid receptor 1 (Homo sapiens, UniProt P21554)
# Sequence (P21554 whole entry): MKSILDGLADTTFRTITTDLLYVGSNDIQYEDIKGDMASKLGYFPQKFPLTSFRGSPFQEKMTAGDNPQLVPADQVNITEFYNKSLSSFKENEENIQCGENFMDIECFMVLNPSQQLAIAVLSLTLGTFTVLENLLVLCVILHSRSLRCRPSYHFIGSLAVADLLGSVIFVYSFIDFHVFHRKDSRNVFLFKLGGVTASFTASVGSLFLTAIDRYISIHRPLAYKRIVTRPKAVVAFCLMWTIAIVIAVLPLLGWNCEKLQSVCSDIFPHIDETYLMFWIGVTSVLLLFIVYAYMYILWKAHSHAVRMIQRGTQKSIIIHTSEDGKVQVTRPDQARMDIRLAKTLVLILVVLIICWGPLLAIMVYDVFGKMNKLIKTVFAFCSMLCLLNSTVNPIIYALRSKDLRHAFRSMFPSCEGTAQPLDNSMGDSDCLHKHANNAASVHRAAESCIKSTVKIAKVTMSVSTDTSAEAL
# Test Method Notes: Agonist activity at human CB1 receptor expressed in CHO cells assessed as cAMP levels using adenylyl cyclase activator NKH 477 incubated for 20 mins measured after 60 mins by HTRF functional assay
pEC50: −log10 of the molar value.
Please note: MET applies when pEC50 is 7 or greater, and NOT MET applies otherwise.

{"columns": ["Item Smiles", "System Tested", "Class Assignment"],
 "data": [
  ["Cl.NC(=O)c1ccc(OC(=O)NCCCCN2CCN(c3cccc(Cl)c3Cl)CC2)c2ccccc12", "Cannabinoid receptor 1 (Homo sapiens, UniProt P21554)", "NOT MET"]
]}

**Query** Check the entry Cl.O=C(NCCCCN1CCN(c2cccc(Cl)c2Cl)CC1)Oc1ccc(C(=O)O)c2ccccc12 : does pEC50 equal or exceed 7?
**Result** NOT MET

**Query** Check the entry Cl.O=C(NCCCCN1CCN(c2cccc(Cl)c2Cl)CC1)Oc1cccc2[nH]cnc12 : does pEC50 equal or exceed 7?
**Result** MET

**Query** Check the entry O=C(NCCCCN1CCN(c2cccc(Cl)c2Cl)CC1)Oc1ccccc1 : does pEC50 equal or exceed 7?
**Result** MET

**Query** Check the entry Cc1ccccc1N1CCN(CCCNC(=O)Oc2cccc3ccccc23)CC1.Cl : does pEC50 equal or exceed 7?
**Result** MET

**Query** Check the entry O=C(NCCCCN1CCN(c2cccc(Cl)c2Cl)CC1)Oc1cccc2[nH]ccc12 : does pEC50 equal or exceed 7?
**Result** NOT MET

**Query** Check the entry COc1ccccc1N1CCN(CCCNC(=O)Oc2cccc3ccccc23)CC1 : does pEC50 equal or exceed 7?
**Result** MET

**Query** Check the entry Cl.O=C(NCCCCN1CCN(c2cccc(Cl)c2Cl)CC1)Oc1cccc2c1OCCO2 : does pEC50 equal or exceed 7?
**Result** NOT MET

**Query** Check the entry Cc1ccccc1N1CCN(CCCCNC(=O)Oc2cccc3ccccc23)CC1.Cl : does pEC50 equal or exceed 7?
**Result** NOT MET
